I'd be grateful if you could share measured Inhibition for these entries.
Tested on: Plasmodium falciparum
Test Details: GSK_TCMDC: Inhibition of Plasmodium falciparum 3D7 in whole red blood cells, using parasite LDH activity as an index of growth. Test compounds present at 2uM
Format: functional
Please state the figure in %; there is no need to write the unit.

## Input Report Inhibition for `COc1cc2nc(NCCc3ccccc3)nc(NCCc3ccccc3)c2cc1OC` please.
## Output 100

## Input And what about the compound CCOc1cc(C2C(C(=O)OC(C)C)=C(C)NC3=C2C(=O)CC(c2ccc(Cl)cc2)C3)ccc1OC(C)=O (stereo not given) ?
## Output 90

## Input Moving on to `CC(C)Oc1cc2c(cc1NS(=O)(=O)c1ccc(-c3cccs3)cc1)CCN(C)CC2.Cl`
## Output 88

## Input Record: CCC(CSC1CCCCC1)N(C)CCN(C)C(CC)CSC1CCCCC1.Cl (stereo not given)
## Output 98

## Input Then this compound: `N#Cc1c(-c2ccccc2)cn2c1[nH]c(=O)c1ccccc12`
## Output 92

## Input Let us now turn to `O=C(/C=C/c1ccc(Cl)c(Cl)c1)NCCCCCN1CCC(NC(=S)Nc2ccc(Cl)cc2)CC1`
## Output 99

## Input Also check Nc1c(Cl)cc(C(O)CNCCCCCCCCCc2ccccn2)cc1Cl (stereo not given)
## Output 98

## Input Same question, `CN(CC(=O)Nc1ccc(F)c(F)c1F)c1ncnc2sc(-c3ccccc3)cc12` this time
## Output 95

## Input Entry `Cl.O=S(=O)(NCCCN1CCOCC1)c1ccc2nccc(Nc3ccc(Oc4ccccc4)cc3)c2c1` please
## Output 95

## Input Next compound up: `COc1ccc(NC(=O)[C@H](CC(C)C)Nc2cc(C)nc(NCC3CCCCC3)n2)cc1.O=C(O)C(F)(F)F`
## Output 100
